- TEST TARGET: T1, human IL-17A (construct not stated) (human, UniProt Q16552 24-155, limits assumed)
- T1 construct: also called huIL-17A; human IL-17A biotin
- T1 sequence: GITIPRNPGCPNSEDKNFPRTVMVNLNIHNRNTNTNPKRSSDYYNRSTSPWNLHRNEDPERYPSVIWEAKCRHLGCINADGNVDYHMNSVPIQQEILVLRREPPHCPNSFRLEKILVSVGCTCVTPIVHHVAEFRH
- ASSAY OVERVIEW: ELISA titration of purified Fab on plate-coated huIL-17A, normalized signal; x axis printed as log10 of Fab concentration (M)
RECORDED METRIC: EC50 (read off the curve)

Fill in EC50 (read off the curve) for record MB444 (Fab, V domains shown, heavy chain C-terminal Flag tag) VH: EVQLVESGGDLVQPGGSLRLSCAASGFTFSSYWMSWVRQAPGKGLEWVANIKQDGSEKYYVDSVKGRFTISRDNAKNSLYLQMNSLRAEDTAVYYCARDRGSLYYWGQGTLVTVSS VL: AIQLTQSPSSLSASVGDRVTITCRPSQGILWELAWYQQKPGKAPKLLIYDASSLENGVPSRFSGSGSGTDFTLTISSLQPEDFATYYCQQFNSYPLTFGGGTKVEIK
~2 nM

Fill in EC50 (read off the curve) for record MB464 (Fab, V domains shown, 30 stays I); heavy chain C-terminal Flag tag) VH: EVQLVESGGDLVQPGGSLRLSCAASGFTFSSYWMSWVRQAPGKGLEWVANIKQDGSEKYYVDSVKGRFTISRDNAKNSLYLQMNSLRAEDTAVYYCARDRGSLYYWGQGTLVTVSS VL: AIQLTQSPSSLSASVGDRVTITCRPSQGIIYQLAWYQQKPGKAPKLLIYDASSLENGVPSRFSGSGSGTDFTLTISSLQPEDFATYYCQQFNSYPLTFGGGTKVEIK
~2 nM
